- TARGET_SYSTEM: Torsin-1A (Homo sapiens) (UniProt O14656)
- Sequence (O14656 whole entry, looked up): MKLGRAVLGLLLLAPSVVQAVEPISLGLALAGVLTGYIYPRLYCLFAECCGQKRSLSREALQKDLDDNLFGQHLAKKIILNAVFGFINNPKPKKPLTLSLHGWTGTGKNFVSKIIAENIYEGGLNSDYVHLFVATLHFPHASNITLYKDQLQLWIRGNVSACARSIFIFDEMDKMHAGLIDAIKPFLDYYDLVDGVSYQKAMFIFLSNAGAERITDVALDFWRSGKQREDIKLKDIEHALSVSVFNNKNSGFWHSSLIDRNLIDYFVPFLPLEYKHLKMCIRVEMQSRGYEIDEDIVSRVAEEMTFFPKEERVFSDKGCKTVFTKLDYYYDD
- PROTOCOL_DESCRIPTION: small-molecule binders of mutant TOR1A in lysate, primary screen, cell lysate, small-molecule microarray, COS7 lysate, 635/667 nm fluorescence (AID 1150);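 further: score pools 667 nm emission and signal to noise measuring lysate protein binding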
- REPORTED_CONDITIONS: COS7 hTOR1A mutant lysate, 635 nm fluorescence, higher = more signal

COMPOUND: CS(=O)(=O)CCOC(=O)C1=CC(CCCO)=CC(C2CC2)N(Cc2cccc(OC(F)(F)F)c2)C=C1C(=O)OCCS(C)(=O)=O (stereo not drawn)
composite z-score: 2.13
--
COMPOUND: CCOC(=O)C[C@H]1[C@H](OC(=O)c2ccc(-c3ccccc3)cc2)[C@@H](NC(=O)CC(C)C)c2cc(OCCCO)ccc2N1C(=O)c1ccccc1
composite z-score: 0.289
--
COMPOUND: COCC(=C=CC[C@H](O)c1cccc(OCCO)c1)C[C@H](O)COCc1ccccc1
composite z-score: 1.31
--
COMPOUND: [N-]=[N+]=NCc1ccccc1[C@@H]1OC(c2ccc(OCCCO)cc2)=N[C@]1(Cc1ccccc1N=[N+]=[N-])C(=O)NCCN1CCOCC1
composite z-score: 1.01
--
COMPOUND: C=C[C@@H](C)[C@H](O)c1ccc(OCCO)cc1
composite z-score: -1.86
--
COMPOUND: O=c1cccc(-c2ccco2)o1
composite z-score: 0.066
--
COMPOUND: Cc1ccc(F)cc1S(=O)(=O)N[C@@H]1CCN(Cc2cccc3[nH]ccc23)C1
composite z-score: 0.913
--
COMPOUND: CN1C=C(C(=O)OCCS(C)(=O)=O)C(C(=O)OCCS(C)(=O)=O)=CC(c2ccc(CO)cc2)=CC1c1cccs1 (stereo not drawn)
composite z-score: 0.713
